B1: library; a variant is named by its letters at N, in order (parent)
chain: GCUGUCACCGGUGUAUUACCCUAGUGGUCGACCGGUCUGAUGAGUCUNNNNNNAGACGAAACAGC

Variants of: B1
Assay: FACS-Seq fitted mean relative fluorescence mCherry/BFP with ligand (log10 relative fluorescence); ligand: hypoxanthine (xanthine aptamer); ligand concentration (+) FACS-Seq: 5 mM; higher = higher reporter protein expression
Conditions: HEK293T, ligand present: yes
PROPERTY MEASURED: FACS-Seq fitted mean (log10)
Output: the number by itself.

GCUGUCACCGGUGUAUUACCCUAGUGGUCGACCGGUCUGAUGAGUCUCAUGGUAGACGAAACAGC [CAUGGU] yielded FACS-Seq fitted mean (log10) of 0.455

GCUGUCACCGGUGUAUUACCCUAGUGGUCGACCGGUCUGAUGAGUCUCUAUUGAGACGAAACAGC [CUAUUG] yielded FACS-Seq fitted mean (log10) of 0.763

GCUGUCACCGGUGUAUUACCCUAGUGGUCGACCGGUCUGAUGAGUCUUAUGUGAGACGAAACAGC [UAUGUG] yielded FACS-Seq fitted mean (log10) of 0.0665

GCUGUCACCGGUGUAUUACCCUAGUGGUCGACCGGUCUGAUGAGUCUGAUGUGAGACGAAACAGC [GAUGUG] yielded FACS-Seq fitted mean (log10) of 0.673

GCUGUCACCGGUGUAUUACCCUAGUGGUCGACCGGUCUGAUGAGUCUGGCCUGAGACGAAACAGC [GGCCUG] yielded FACS-Seq fitted mean (log10) of 0.239

GCUGUCACCGGUGUAUUACCCUAGUGGUCGACCGGUCUGAUGAGUCUUAUUAUAGACGAAACAGC [UAUUAU] yielded FACS-Seq fitted mean (log10) of 0.594

Attribution: the supplement of paper PMC6757056
